Test system: 475296-252-R-J1-PDC spheroid viability;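 also: spheroids exposed to agents for seven days before readout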
Assay: Anticancer human tumor 475296-252-R-J1-PDC patient-derived rectal carcinoma cell line growth inhibition [PI3K]
Conditions: second compound 0.316 µM; first compound 0.316 µM; active compounds read low; spheroids with HUVEC and MSC
# viability, T/C per entry
All answers are understood in %, so give the number only.

Example entries begin here.
Compound: C=CC(=O)N1CCN(c2nc(=O)n(-c3c(C)ccnc3C(C)C)c3nc(-c4c(O)cccc4F)c(F)cc23)C(C)C1 (centres undefined) + CC(Nc1ccc2c(c1)OCCn1cc(N3C(=O)OCC3C(F)F)nc1-2)C(N)=O
Assay target: 475296-252-R-J1-PDC spheroid viability;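 also: spheroids exposed to agents for seven days before readout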
Value observed: 88

Compound: CCCS(=O)(=O)Nc1ccc(F)c(C(=O)c2c[nH]c3ncc(-c4ccc(Cl)cc4)cc23)c1F + CC(Nc1ccc2c(c1)OCCn1cc(N3C(=O)OCC3C(F)F)nc1-2)C(N)=O
Assay target: 475296-252-R-J1-PDC spheroid viability;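 also: spheroids exposed to agents for seven days before readout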
Value observed: 89.5

Compound: CC1(C)CCC(CN2CCN(c3ccc(C(=O)NS(=O)(=O)c4ccc(NCC5CCOCC5)c([N+](=O)[O-])c4)c(Oc4cnc5[nH]ccc5c4)c3)CC2)=C(c2ccc(Cl)cc2)C1 + Cc1nc(NC(=O)N2CCCC2C(N)=O)sc1-c1ccnc(C(C)(C)C(F)(F)F)c1
Assay target: 475296-252-R-J1-PDC spheroid viability;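 also: spheroids exposed to agents for seven days before readout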
Value observed: 89.9

With those in mind, consider the next compound.
Exam item: Please report viability, T/C for the following compound: C[C@@H](NC(=O)c1ncnc(N)c1Cl)c1ncc(C(=O)Nc2cc(C(F)(F)F)c(Cl)cn2)s1 + CC(Nc1ncnc2nc[nH]c12)c1cc2cccc(Cl)c2c(=O)n1-c1ccccc1
Marked response: 88.2
